# experimental target: Dual specificity protein kinase CLK3 (Homo sapiens, UniProt P49761)
# Sequence (P49761 whole entry): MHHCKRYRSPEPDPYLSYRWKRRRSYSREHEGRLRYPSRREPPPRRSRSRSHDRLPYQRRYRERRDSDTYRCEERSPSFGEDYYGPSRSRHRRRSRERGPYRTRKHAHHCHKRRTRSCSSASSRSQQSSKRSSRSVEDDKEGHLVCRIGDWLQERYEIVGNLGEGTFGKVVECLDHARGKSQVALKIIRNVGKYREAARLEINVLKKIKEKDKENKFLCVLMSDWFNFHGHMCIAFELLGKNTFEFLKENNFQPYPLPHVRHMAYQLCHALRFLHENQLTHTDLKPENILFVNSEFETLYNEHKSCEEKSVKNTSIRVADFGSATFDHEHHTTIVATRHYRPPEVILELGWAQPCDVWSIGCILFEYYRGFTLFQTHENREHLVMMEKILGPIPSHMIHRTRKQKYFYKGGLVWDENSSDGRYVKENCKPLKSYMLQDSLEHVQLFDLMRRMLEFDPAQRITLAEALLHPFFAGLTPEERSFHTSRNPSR
result type: IC50
# include the unit after the value

Given the compound CN1C(=O)[C@@H](N2CCc3cn(CC4CCS(=O)(=O)CC4)nc3C2=O)COc2ccccc21 [TP-030n] , what is its reported IC50? 1000 nM

Also CN1C(=O)[C@@H](N2CCc3cn(Cc4ccccc4)nc3C2=O)COc2ccccc21 [TP-030-1] , if possible. 1000 nM

* * *

# experimental target: Homeodomain-interacting protein kinase 3 (Homo sapiens, UniProt Q9H422)
# Sequence (Q9H422 whole entry): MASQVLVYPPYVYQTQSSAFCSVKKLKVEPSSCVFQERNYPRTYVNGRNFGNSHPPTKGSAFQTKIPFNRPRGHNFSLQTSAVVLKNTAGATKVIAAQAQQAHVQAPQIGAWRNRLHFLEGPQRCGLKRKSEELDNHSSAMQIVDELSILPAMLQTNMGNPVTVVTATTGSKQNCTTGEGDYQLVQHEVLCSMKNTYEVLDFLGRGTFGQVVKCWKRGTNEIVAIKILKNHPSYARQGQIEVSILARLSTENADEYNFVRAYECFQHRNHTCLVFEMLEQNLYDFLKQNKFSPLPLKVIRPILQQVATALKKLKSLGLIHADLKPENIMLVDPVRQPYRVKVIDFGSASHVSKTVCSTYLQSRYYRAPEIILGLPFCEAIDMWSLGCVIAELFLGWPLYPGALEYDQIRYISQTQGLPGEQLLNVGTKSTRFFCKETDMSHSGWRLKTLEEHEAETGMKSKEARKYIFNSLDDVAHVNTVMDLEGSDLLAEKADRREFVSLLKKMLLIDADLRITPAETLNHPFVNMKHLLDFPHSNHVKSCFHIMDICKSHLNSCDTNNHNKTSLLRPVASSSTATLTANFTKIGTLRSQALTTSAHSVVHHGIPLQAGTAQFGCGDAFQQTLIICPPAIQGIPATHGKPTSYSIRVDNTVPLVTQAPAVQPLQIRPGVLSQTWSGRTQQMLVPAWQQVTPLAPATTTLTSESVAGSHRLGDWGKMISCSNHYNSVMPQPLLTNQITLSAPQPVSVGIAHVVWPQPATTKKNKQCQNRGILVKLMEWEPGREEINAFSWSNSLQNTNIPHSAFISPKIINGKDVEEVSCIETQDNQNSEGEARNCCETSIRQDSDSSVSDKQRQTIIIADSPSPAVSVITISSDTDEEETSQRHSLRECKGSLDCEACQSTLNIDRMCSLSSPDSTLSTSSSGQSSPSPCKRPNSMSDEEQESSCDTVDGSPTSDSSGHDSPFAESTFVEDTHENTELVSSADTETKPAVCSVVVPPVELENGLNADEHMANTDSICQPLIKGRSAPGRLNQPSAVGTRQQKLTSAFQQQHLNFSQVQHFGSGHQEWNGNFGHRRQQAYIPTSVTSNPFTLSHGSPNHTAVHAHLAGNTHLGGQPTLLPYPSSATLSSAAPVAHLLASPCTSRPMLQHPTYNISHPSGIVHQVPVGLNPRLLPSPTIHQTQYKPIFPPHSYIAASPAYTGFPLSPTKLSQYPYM
result type: IC50
# include the unit after the value

Given the molecule CN1C(=O)[C@@H](N2CCc3cn(CC4CCS(=O)(=O)CC4)nc3C2=O)COc2ccccc21 [TP-030n] , what is its reported IC50? 1000 nM

* * *

# experimental target: Dual specificity tyrosine-phosphorylation-regulated kinase 1A (Homo sapiens)
result type: pIC50
Schema: pIC50 number; meaning minus log10 of the concentration expressed in molar units.

Given the compound CN1C(=O)[C@@H](N2CCc3cn(Cc4ccccc4)nc3C2=O)COc2ccccc21 [TP-030-1] , what is its reported pIC50? 6.00

Also CN1C(=O)[C@@H](N2CCc3cn(CC4CCS(=O)(=O)CC4)nc3C2=O)COc2ccccc21 [TP-030n] , if possible. 6.00

* * *

# collection of IC50 values tested on UniProt:Q9NYV4
# Sequence (Q9NYV4 whole entry): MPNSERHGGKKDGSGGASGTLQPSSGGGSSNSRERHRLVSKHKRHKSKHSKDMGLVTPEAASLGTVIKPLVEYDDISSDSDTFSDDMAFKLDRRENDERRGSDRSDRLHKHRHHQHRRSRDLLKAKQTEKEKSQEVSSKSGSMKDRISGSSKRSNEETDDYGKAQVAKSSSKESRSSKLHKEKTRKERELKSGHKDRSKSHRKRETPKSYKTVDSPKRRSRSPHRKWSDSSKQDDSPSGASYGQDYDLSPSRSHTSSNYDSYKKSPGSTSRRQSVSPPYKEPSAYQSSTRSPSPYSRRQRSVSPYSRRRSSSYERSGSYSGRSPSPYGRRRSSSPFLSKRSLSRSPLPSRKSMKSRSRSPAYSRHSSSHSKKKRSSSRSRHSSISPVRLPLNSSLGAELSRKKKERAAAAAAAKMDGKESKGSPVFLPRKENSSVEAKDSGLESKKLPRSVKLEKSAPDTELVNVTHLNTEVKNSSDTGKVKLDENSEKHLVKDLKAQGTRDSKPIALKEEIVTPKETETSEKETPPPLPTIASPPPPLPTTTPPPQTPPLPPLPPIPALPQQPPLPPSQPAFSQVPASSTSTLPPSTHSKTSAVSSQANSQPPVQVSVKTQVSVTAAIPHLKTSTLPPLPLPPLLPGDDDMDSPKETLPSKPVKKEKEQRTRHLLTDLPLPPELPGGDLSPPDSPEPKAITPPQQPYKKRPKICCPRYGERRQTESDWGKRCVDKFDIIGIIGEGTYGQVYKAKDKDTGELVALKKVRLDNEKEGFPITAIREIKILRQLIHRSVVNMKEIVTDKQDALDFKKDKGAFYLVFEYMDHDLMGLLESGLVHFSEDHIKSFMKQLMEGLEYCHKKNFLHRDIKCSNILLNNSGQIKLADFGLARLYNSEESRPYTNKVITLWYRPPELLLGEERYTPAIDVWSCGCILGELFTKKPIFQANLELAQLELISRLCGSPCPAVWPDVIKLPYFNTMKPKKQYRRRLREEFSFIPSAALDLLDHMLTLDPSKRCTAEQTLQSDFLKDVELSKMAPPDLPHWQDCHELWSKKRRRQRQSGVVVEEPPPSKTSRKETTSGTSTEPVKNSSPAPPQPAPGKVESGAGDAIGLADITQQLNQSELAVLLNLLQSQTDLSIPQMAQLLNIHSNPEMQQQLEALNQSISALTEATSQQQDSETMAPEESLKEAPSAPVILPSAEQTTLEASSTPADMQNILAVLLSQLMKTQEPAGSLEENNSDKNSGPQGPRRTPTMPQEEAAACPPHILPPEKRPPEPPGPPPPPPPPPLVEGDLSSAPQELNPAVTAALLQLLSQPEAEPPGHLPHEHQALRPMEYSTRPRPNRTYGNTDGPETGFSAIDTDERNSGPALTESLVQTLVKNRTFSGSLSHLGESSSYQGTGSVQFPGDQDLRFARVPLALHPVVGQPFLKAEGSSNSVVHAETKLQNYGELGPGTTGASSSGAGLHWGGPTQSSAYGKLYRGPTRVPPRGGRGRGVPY
# include the unit after the value

Given the compound CN1C(=O)[C@@H](N2CCc3cn(Cc4ccccc4)nc3C2=O)COc2ccccc21 , what is its reported IC50? 1 µM

Also CN1C(=O)[C@@H](N2CCc3cn(CC4CCS(=O)(=O)CC4)nc3C2=O)COc2ccccc21 [TP-030n] , if possible. 1 µM

* * *

Sequence of the target: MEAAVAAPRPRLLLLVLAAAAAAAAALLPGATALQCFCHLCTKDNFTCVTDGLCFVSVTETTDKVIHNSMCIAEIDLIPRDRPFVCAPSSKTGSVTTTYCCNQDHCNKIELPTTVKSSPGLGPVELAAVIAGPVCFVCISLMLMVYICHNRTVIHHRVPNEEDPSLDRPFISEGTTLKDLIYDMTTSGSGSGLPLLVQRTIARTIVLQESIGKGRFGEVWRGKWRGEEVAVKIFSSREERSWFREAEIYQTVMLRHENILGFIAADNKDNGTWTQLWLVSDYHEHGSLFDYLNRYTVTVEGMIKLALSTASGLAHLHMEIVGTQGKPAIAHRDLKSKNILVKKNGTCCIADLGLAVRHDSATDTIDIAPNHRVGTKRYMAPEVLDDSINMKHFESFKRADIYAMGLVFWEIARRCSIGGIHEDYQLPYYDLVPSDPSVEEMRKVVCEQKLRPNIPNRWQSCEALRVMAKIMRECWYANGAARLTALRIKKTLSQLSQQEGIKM
result type: pIC50
Schema: pIC50 number; meaning minus log10 of the concentration expressed in molar units.

Given the compound CN1C(=O)[C@@H](N2CCc3cn(Cc4ccccc4)nc3C2=O)COc2ccccc21 [TP-030-1] , what is its reported pIC50? 6.00

Also CN1C(=O)[C@@H](N2CCc3cn(CC4CCS(=O)(=O)CC4)nc3C2=O)COc2ccccc21 [TP-030n] , if possible. 6.00

* * *

# collection of pIC50 values tested on Tyrosine-protein kinase SYK (Homo sapiens)
Schema: pIC50 number; meaning minus log10 of the concentration expressed in molar units.

Given the compound CN1C(=O)[C@@H](N2CCc3cn(Cc4ccccc4)nc3C2=O)COc2ccccc21 , what is its reported pIC50? 6.00

Also CN1C(=O)[C@@H](N2CCc3cn(CC4CCS(=O)(=O)CC4)nc3C2=O)COc2ccccc21 [TP-030n] , if possible. 6.00
